# Target: T1, human MSLN-R2-his protein (human, UniProt Q13421 391-486)
# T1 construct: Region 2 of human mesothelin, made in HEK293E cells, His-tagged; also called human MSLN-R2 protein; hMSLN-R2-his; not shown: His tag
# T1 sequence (Q13421 other isoform, or with tags, fused parts or gaps): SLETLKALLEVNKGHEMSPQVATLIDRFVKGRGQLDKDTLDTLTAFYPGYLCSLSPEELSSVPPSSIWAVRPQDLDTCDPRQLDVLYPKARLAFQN
# Test details: ELISA on coated MSLN-R2; antibody 0.01 nM
Metric: OD450
Put your answer as a value accompanied by its unit after it.

Query S009-F8-12.13 (antibody, human IgG1, kappa, V domains shown) VH: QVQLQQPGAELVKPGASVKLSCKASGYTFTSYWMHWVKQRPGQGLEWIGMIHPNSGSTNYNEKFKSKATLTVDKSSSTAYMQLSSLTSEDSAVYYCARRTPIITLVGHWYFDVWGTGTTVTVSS VL: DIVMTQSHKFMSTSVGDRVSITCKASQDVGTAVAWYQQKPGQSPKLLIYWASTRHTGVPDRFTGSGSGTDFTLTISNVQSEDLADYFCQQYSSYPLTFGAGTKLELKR yields OD450 of 0.05 OD450
